Where these numbers come from: ChEMBL document CHEMBL1201862

Quick reference: GI50 of the listed items.
system: SK-MEL-2; assay: NCI tumour cell line growth inhibition, 48 h
The source made the active and inactive calls. Cut-off read from the data, not from the text of the source: active = GI50 up to about 1.1 µM and inactive = higher.

>  <Smiles string>
COc1cc(OC)cc(-n2c(N)c(C#N)c3ccc([N+](=O)[O-])cc3c2=O)c1

>  <GI50>
41.2 µM (inactive)

$$$$
>  <Smiles string>
O=P(NC12CC3CC(CC(C3)C1)C2)(N1CC1)N1CC1

>  <GI50>
> 100 µM (inactive)

$$$$
>  <Smiles string>
Oc1ccccc1/C=C/c1csnn1

>  <GI50>
> 100 µM (inactive)

$$$$
>  <Smiles string>
CC(C)NC(=O)OCCN=C1c2ccccc2CCc2ccccc21

>  <GI50>
16.4 µM (inactive)

$$$$
>  <Smiles string>
COc1cc2c(cc1OCCCCOc1cc3nc(C)nc(Cl)c3cc1OC)N=C[C@@H]1CCCN1C2=O

>  <GI50>
1.95 µM (inactive)

$$$$
>  <Smiles string>
Cc1c(Cl)c2ccccc2n1S(=O)(=O)c1ccccc1

>  <GI50>
28.8 µM (inactive)

$$$$
